# Tested on: A549
# TEST_SUMMARY: The compound was tested for tumor cell growth inhibitory activity against human lung carcinoma (A549) cell line.
# Type: functional
# TEST_SETTINGS: A549, read-out: ED50
pEC50: −log10 of the molar value.
The following molecules are shown together with reported pEC50 values.

[[record]]
structure_notation = "COc1cc([C@@H]2c3cc4c(cc3[C@H](Nc3cc([N+](=O)[O-])cc([N+](=O)[O-])c3)[C@H]3COC(=O)[C@H]23)OCO4)cc(OC)c1O"
result = "< 5.30"

[[record]]
structure_notation = "COc1cc(N[C@@H]2c3cc4c(cc3[C@@H](c3cc(OC)c(O)c(OC)c3)[C@H]3C(=O)OC[C@@H]32)OCO4)c(C)cc1[N+](=O)[O-]"
result = "< 4.30"


Turning now to a further molecule:
Return reported pEC50; argument: `COc1cc([C@@H]2c3cc4c(cc3[C@@H](Nc3cc([N+](=O)[O-])cc([N+](=O)[O-])c3)[C@H]3COC(=O)[C@H]23)OCO4)cc(OC)c1O`
< 4.40

The measurements presented in this section are drawn from ChEMBL document CHEMBL1132260.
